Source: the supplement of paper PMC10724198

# Tested on: Saccharomyces cerevisiae;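 note: PSI is a weighted mean of sequencing reads over stability bins, variants kept only with over 10 reads, mCherry proximal and sfGFP distal, peptide attached via GGGS linker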
# EXPERIMENT NOTES: protein stability index of tFT-peptide fusion (C-terminal peptide) (PSI (0-1 scale)); higher = more stable (slower turnover)
# EXPERIMENTAL PARAMETERS: genetic background: wild type; temperature: 30 C
MEASUREMENT TYPE: protein stability index

Known results for sequences:
ISMASRAGILRG :: 0.686
SFGPQFLAPVFS :: 0.706
SPLASVLPHAAL :: 0.707
ALMITIMNNREF :: 0.649
SPLPPPSPRPSL :: 0.681

protein stability index measured on `GARGRGLVTESA` = 0.703

protein stability index measured on `GRLDHWNKHKYI` = 0.184

protein stability index measured on `VVGYAIRVRSGL` = 0.593

protein stability index measured on `QCQVKGIFKKVF` = 0.687

protein stability index measured on `GIGVGGIHGGIL` = 0.755

protein stability index measured on `AYCVPPAFPFPL` = 0.627

protein stability index measured on `RFVDLASFLTFR` = 0.587

protein stability index measured on `WDLYFSVVYRVV` = 0.114
